Target: SHP2-C SH2;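 further: peptide library displayed on the E. coli surface as eCPX fusions, selected cells deep-sequenced, score is each peptide's frequency after selection divided by its frequency in the input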
Test: SH2 binding enrichment of the phosphorylated peptide, bacterial display (enrichment ratio); higher = better substrate or ligand; peptides without Tyr show the background
Readout: SH2 binding enrichment

Below, 3 sequences whose answers are already recorded.
> print(dat)
                        biosequence  test.target    val
1  IIEDPYFGNDF [ACP1_Y132_S137F_YF]   SHP2-C SH2  0.662
2      PSALGYSPSLH [LLGL2_Y40_R45H]   SHP2-C SH2  0.695
3           LYIDSYEKDVA [PGM1_Y521]   SHP2-C SH2  0.589

A. PSPTKYSLSPS [RANBP2_Y785_R784K]
B. VFGEEYEEQPR [ZMYM2_Y1033]
C. PKFHSYVSLPF [PLXNA2_Y293]
D. DFLSSYSAVKQ [OAT_Y85_N89K]
Incoming: Output the entries ranked by SH2 binding enrichment from maximum down to minimum. Write the labels in rank order as requested.
Outgoing: D, C, B, A

I. GRLVEYDIDEV [SMS_Y134]
II. YASALYGQRRS [FGF11_Y162_R163G]
III. AVIADYMFWLG [SPATA16_Y290_M286V]
Incoming: Output the entries ranked by SH2 binding enrichment from maximum down to minimum. Write the labels in rank order as requested.
Outgoing: III, I, II

I. EEVPLYESATT [DCC_Y809_G805E]
II. VTQEPYELFCE [CBL_Y368_Q367P_YF]
Incoming: Could you point out whether the larger SH2 binding enrichment belongs to I or to II ? Field: selected label. Fill in the label of the entry you choose.
Outgoing: II
(II: 0.944, I: 0.574)

P. HFVDEYDPTME [KRAS_Y32_I36M]
Q. SREDIYKRNIE [PDE4DIP_Y45]
Incoming: Could you point out whether the larger SH2 binding enrichment belongs to P or to Q ? Field: selected label. Fill in the label of the entry you choose.
Outgoing: Q
